experiment: In vitro metabolic stability in liver microsomes (calculated Fmax); type: in vitro ADME, human; conditions: 1 μM, calculated maximal oral bioavailability
ENDPOINT: Human liver microsome Fmax (%)

* Cc1cnc(-c2cc(O[C@@H]3CCOC3)cc(C(=O)N[C@H](C)c3cnc(C(F)(F)F)nc3)c2)s1 [Example 11] | 57
* Cc1cnc(-c2cc(OC(C)C(C)O)cc(C(=O)N[C@H](C)c3cnc(C(F)(F)F)nc3)c2)s1 (single isomer, unassigned) [Example 163] | 100
* CCc1cnc(-c2cc(OC[C@H]3CN(C)CCO3)cc(C(=O)N[C@H](C)c3ccc(C(F)(F)F)nn3)c2)s1 [Example 419] | 74
